Biological target: nsP2 protease (Chikungunya virus)
Construct: expressed in transfected cells; host or cells: HEK293T (the results text says HEK293), transient co-transfection in pcDNA3.1(+)
Sequence (Q8JUX6 755-1333 limits assumed): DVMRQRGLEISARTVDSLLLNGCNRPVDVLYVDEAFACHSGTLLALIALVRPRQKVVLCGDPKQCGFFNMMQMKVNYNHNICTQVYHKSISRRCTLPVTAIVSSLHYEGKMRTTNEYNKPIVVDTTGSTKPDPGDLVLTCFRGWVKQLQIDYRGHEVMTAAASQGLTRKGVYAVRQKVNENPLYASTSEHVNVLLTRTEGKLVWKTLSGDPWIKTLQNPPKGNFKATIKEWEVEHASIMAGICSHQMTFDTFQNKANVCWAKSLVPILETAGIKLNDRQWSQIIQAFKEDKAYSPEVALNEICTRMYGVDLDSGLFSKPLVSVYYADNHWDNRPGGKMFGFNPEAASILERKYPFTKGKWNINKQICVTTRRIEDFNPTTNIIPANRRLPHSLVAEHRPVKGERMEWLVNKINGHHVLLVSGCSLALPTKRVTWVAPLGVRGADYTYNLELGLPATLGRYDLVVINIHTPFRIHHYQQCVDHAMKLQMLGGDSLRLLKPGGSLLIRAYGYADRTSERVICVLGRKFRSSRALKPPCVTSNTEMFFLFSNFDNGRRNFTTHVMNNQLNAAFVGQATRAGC
Assay: cell-based
Type: cell-based
Conditions: HEK293, read-out: Cell-based % Efficacy
The entries below are paired with their reported Emax.
endpoint_name: Emax (%)

[[record]]
structure_smiles = "CCC[C@H](NC(=O)[C@@H]1[C@H]2CCC[C@H]2CN1C(=O)[C@@H](NC(=O)[C@@H](NC(=O)c1cnccn1)C1CCCCC1)C(C)(C)C)C(=O)C(=O)NC1CC1"
meas_value = 213

[[record]]
structure_smiles = "O=c1oc2c3c(ccc2c2ccccc12)OCN(Cc1ccccc1Cl)C3"
meas_value = 112

[[record]]
structure_smiles = "Nc1nc2c(s1)CCN(Cc1ccc(Cl)cc1)CC2"
meas_value = 114

[[record]]
structure_smiles = "C[C@H](N)[C@H](O)c1ccc(O)c(O)c1"
meas_value = 71.5

[[record]]
structure_smiles = "COc1cccc(C(=O)CCN[C@@H](C)[C@H](O)c2ccccc2)c1"
meas_value = 60.3

[[record]]
structure_smiles = "C/C(=N\\NC(=N)N)c1cc(NC(=O)CCCCCCCCC(=O)Nc2cc(/C(C)=N/NC(=N)N)cc(/C(C)=N/NC(=N)N)c2)cc(/C(C)=N/NC(=N)N)c1"
meas_value = 137

[[record]]
structure_smiles = "O=c1oc2c3c(ccc2c2ccccc12)OCN(Cc1ccc(Cl)cc1)C3"
meas_value = 309

